System: SNB-75 CNS
Assay: NCI tumour cell line growth inhibition, 48 h
Binary call on TGI: label 1 from 20 µM upward, label 0 beneath that.

Answered cases to consult:
{"columns": ["compound", "class.name"],
 "data": [
  ["C/C=C/[C@@H]1OC(=O)C2=C[C@@H](O)[C@@H](/C=C/C)O[C@H]21", "label 1"],
  ["O=C(Nc1nc(=S)c2c(ncn2CCO)[nH]1)c1ccccc1", "label 1"]
]}

Data request: Decide: is the reported value of TGI for O=C(CN1CCN(c2ccccc2)CC1)N1CCN(c2nnc(-c3ccc(Cl)cc3)c(-c3ccc(Cl)cc3)n2)CC1 equal to or greater than 20 µM?
Data returned: label 1

Data request: Decide: is the reported value of TGI for CCN(CC)CC(C(=O)Nc1c(C)cccc1C)/C(C)=N\NC(=O)c1ccncc1 (stereo not given) equal to or greater than 20 µM?
Data returned: label 1

Data request: Decide: is the reported value of TGI for CC(C)C/C=C/C1=NN(c2cccc(S(=O)(=O)O)c2)C2(C1)SCC(=O)N2c1nc2ccccc2s1 (stereo not given) equal to or greater than 20 µM?
Data returned: label 1
